Target: human RXFP1 (Homo sapiens, UniProt Q9HBX9)
Construct: expressed in transfected cells
Test: RXFP1 cAMP assay (hRXFP1 HEK293 cAMP assay, HTRF)
Assay type: cell-based
Details: HEK293 cells stably expressing human RXFP1, 30 min at room temperature, read-out: cAMP hRXFP1 HEK293 Assay EC50
Let's look at some compounds and their measured pEC50.
The value called pEC50 is obtained by taking minus log10 of the concentration in mol/L.

Use the examples below as a reference point.
## Input Would you kindly share the measured pEC50 for COc1ccc(-c2cnc3n2CC(O)CC3)cc1C(=O)N[C@H]1[C@@H](C(=O)Nc2ccc(F)c(C(F)(F)F)c2)[C@H]2CC[C@@H]1/C2=C\C1CC1 (stereo partly drawn) [compound 755] ?
## Output 8.30

## Input Quick one: pEC50 for COc1ccc(C2=NOC(CC(=O)O)C2)cc1C(=O)N[C@@H]1C2CCC(/C2=C/C2CC2)[C@@H]1C(=O)Nc1ccc(F)c(C(F)(F)F)c1 (stereo partly drawn) [compound 391] ?
## Output 7.31

## Input So what does the record say about pEC50 for COc1ccc(C2=NO[C@H]3C[C@H](CO)C[C@@H]23)cc1C(=O)N[C@H]1[C@@H](C(=O)N[C@H](C)C2(C)CC2)[C@H]2CC[C@@H]1/C2=C\CCC(F)(F)F [compound 812] ?
## Output 9.10

New cases:
## Input What does the record list as pEC50 for COc1ccc(-c2cc(C(=O)O)ccc2F)cc1C(=O)N[C@@H]1C2CCC(/C2=C/C(=O)N(C)C)[C@@H]1C(=O)Nc1ccc(F)c(C(F)(F)F)c1 (stereo partly drawn) [Example 323] ?
## Output 6.07

## Input Look up pEC50: COc1ccc(-c2cc(-c3nnn[nH]3)ccc2F)cc1C(=O)N[C@@H]1C2CCC(C2=C(C)C)[C@@H]1C(=O)Nc1ccc(F)c(C(F)(F)F)c1 (stereo partly drawn) [Example 108]
## Output 6.48

## Input // query pEC50 value for entry CC(C)=C1C2CCC1[C@H](C(=O)Nc1ccc(F)c(C(F)(F)F)c1)[C@@H]2NC(=O)c1ccccc1N(C)C (stereo partly drawn) [compound 119]
## Output 5.41

----------
Target: human RXFP1 (Homo sapiens)
Construct: expressed in transfected cells
Sequence (Q9HBX9 1-757): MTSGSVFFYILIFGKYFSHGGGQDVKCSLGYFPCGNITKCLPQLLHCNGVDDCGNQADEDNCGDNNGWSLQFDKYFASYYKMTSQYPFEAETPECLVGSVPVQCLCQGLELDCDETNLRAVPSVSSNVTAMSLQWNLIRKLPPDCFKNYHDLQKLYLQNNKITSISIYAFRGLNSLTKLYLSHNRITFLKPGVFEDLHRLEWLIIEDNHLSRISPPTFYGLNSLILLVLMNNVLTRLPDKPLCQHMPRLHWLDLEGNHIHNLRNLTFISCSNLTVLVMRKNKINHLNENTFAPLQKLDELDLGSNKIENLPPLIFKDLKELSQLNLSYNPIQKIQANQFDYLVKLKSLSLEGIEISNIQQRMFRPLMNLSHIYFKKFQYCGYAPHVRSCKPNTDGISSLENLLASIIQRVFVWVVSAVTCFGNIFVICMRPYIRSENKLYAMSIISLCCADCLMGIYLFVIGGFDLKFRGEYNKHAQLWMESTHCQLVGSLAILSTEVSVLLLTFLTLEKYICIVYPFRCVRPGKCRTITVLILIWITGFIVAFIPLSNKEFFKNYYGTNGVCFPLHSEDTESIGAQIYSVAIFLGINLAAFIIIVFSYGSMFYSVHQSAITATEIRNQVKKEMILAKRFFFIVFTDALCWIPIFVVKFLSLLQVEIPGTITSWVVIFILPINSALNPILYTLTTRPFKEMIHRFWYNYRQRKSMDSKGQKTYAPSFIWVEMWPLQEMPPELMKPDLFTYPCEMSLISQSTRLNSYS
Test: RXFP1 cAMP assay (hRXFP1 HEK293 cAMP assay, HTRF)
Assay type: cell-based
Details: HEK293 cells stably expressing human RXFP1, 30 min at room temperature, read-out: cAMP hRXFP1 HEK293 Assay EC50
observation-type: EC50
# include the unit after the value

## Input Item under review: COc1ccc(-c2nc(C(=O)O)co2)cc1C(=O)N[C@@H]1C2CCC(C2=C(C)C)[C@@H]1C(=O)Nc1ccc(F)c(C(F)(F)F)c1 (stereo partly drawn) . Reported EC50?
## Output 1800 nM

## Input Quick one: EC50 for COc1ccc(-c2cc(C(=O)NS(C)(=O)=O)ccc2F)cc1C(=O)N[C@@H]1C2CCC(C2=C(C)C)[C@@H]1C(=O)Nc1ccc(F)c(C(F)(F)F)c1 (stereo partly drawn) ?
## Output 130 nM

## Input Given COc1ccc(-c2cc(C(OC(=O)NC3CCC3)C(=O)O)ccc2F)cc1C(=O)N[C@H]1[C@@H](C(=O)Nc2ccc(F)c(C(F)(F)F)c2)[C@H]2CC[C@@H]1/C2=C\C1CCCC1 (stereo partly drawn) , state its recorded EC50.
## Output 1.4 nM
